Value source: the supplement of paper PMC5908809

Items are presented alongside their recorded percent inhibition of viability.
Test system: KAI3 (IL-2 2.5 ng/mL);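 further: normalised to DMSO-only wells as negative and benzethonium chloride as positive control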
Assay: percent inhibition of viability; higher = more inhibition
Details: 72 h; 10000 nM

>  <molecule>
CCOC(=O)CCNc1cc(N2CCc3ccccc3CC2)nc(-c2ccccn2)n1 [GSK-J4] (max concentration tested 100000 nM)

>  <percent inhibition of viability [%]>
94.3

$$$$
>  <molecule>
CCCOc1ccn2c(C(C)=O)cc(-c3ccccc3S(C)(=O)=O)c2c1 [GSK2801] (max concentration tested 10000 nM)

>  <percent inhibition of viability [%]>
13.8

$$$$
>  <molecule>
O=NN(CCCl)C(=O)NCCCl [Carmustine] (max concentration tested 10000 nM)

>  <percent inhibition of viability [%]>
17.8

$$$$
>  <molecule>
COc1cc([C@@H]2c3cc4c(cc3[C@@H](O[C@@H]3O[C@@H]5CO[C@@H](c6cccs6)O[C@H]5[C@H](O)[C@H]3O)[C@H]3COC(=O)[C@H]23)OCO4)cc(OC)c1O [Teniposide] (max concentration tested 10000 nM)

>  <percent inhibition of viability [%]>
92.2

$$$$
>  <molecule>
S=c1[nH]cnc2nc[nH]c12 [Mercaptopurine] (max concentration tested 10000 nM)

>  <percent inhibition of viability [%]>
53.7

$$$$
>  <molecule>
O=c1[nH]c(=O)n([C@H]2C[C@H](O)[C@@H](CO)O2)cc1F [Floxuridine] (max concentration tested 10000 nM)

>  <percent inhibition of viability [%]>
45.6

$$$$
>  <molecule>
COc1ccc(C[C@H](NC(=O)[C@H](C)NC(=O)CN2CCOCC2)C(=O)N[C@@H](Cc2ccccc2)C(=O)C2(C)CO2)cc1 (stereo in doubt) [ONX-0914] (max concentration tested 10000 nM)

>  <percent inhibition of viability [%]>
102

$$$$
>  <molecule>
NC(=O)c1ccc(I)c([N+](=O)[O-])c1 [Iniparib] (max concentration tested 10000 nM)

>  <percent inhibition of viability [%]>
19

$$$$
>  <molecule>
COC(=O)C[C@](O)(CCCC(C)(C)O)C(=O)O[C@@H]1C(OC)=C[C@]23CCCN2CCc2cc4c(cc2[C@H]13)OCO4 [Omacetaxine] (max concentration tested 10000 nM)

>  <percent inhibition of viability [%]>
106

$$$$
>  <molecule>
CC(C)C[C@@H](C(=O)N[C@H](C(=O)OC1CCCC1)c1ccccc1)[C@H](O)C(=O)NO [Tosedostat] (max concentration tested 10000 nM)

>  <percent inhibition of viability [%]>
19.7

$$$$
>  <molecule>
CC1=C(/C=C/C(C)=C/C=C/C(C)=C/C(=O)O)C(C)(C)CCC1 [Tretinoin] (max concentration tested 10000 nM)

>  <percent inhibition of viability [%]>
16

$$$$
>  <molecule>
O=C(Nc1ccc2[nH]nc(-c3ccncc3)c2c1)[C@@H]1CCN(CC(=O)N2CCN(c3ccc(-c4ncccn4)cc3)CC2)C1 (max concentration tested 10000 nM)

>  <percent inhibition of viability [%]>
46.9

$$$$
>  <molecule>
Oc1ncc(N(CCCl)CCCl)c(O)n1 [Uracil mustard] (max concentration tested 10000 nM)

>  <percent inhibition of viability [%]>
23.1

$$$$
>  <molecule>
CC1(C)CCC(CN2CCN(c3ccc(C(=O)NS(=O)(=O)c4ccc(NCC5CCOCC5)c([N+](=O)[O-])c4)c(Oc4cnc5[nH]ccc5c4)c3)CC2)=C(c2ccc(Cl)cc2)C1 [Venetoclax] (max concentration tested 10000 nM)

>  <percent inhibition of viability [%]>
98.7

$$$$
>  <molecule>
CCc1nc(-c2cccc(C)c2)c(-c2ccnc(NC(=O)c3ccccc3)c2)s1 [TAK-715] (max concentration tested 10000 nM)

>  <percent inhibition of viability [%]>
47

$$$$
>  <molecule>
C=CC[C@@H]1/C=C(\C)C[C@H](C)C[C@H](OC)[C@H]2O[C@@](O)(C(=O)C(=O)N3CCCC[C@H]3C(=O)O[C@H](/C(C)=C/[C@@H]3CC[C@@H](O)[C@H](OC)C3)[C@H](C)[C@@H](O)CC1=O)[C@H](C)C[C@@H]2OC [Tacrolimus] (max concentration tested 10000 nM)

>  <percent inhibition of viability [%]>
1.06

$$$$
>  <molecule>
CN(c1ccccc1CNc1nc(Nc2ccc3c(c2)CC(=O)N3)ncc1C(F)(F)F)S(C)(=O)=O (max concentration tested 10000 nM)

>  <percent inhibition of viability [%]>
106

$$$$
